Target: mTRPV1 (mouse TRPV1) (Mus musculus, UniProt Q704Y3)
Construct: full-length mTRPV1 cDNA in pEYFP-N3, C-terminal eYFP fusion, transiently expressed in HEK293 cells; homotetramer
Sequence (Q704Y3 whole entry, the tested form may be a part): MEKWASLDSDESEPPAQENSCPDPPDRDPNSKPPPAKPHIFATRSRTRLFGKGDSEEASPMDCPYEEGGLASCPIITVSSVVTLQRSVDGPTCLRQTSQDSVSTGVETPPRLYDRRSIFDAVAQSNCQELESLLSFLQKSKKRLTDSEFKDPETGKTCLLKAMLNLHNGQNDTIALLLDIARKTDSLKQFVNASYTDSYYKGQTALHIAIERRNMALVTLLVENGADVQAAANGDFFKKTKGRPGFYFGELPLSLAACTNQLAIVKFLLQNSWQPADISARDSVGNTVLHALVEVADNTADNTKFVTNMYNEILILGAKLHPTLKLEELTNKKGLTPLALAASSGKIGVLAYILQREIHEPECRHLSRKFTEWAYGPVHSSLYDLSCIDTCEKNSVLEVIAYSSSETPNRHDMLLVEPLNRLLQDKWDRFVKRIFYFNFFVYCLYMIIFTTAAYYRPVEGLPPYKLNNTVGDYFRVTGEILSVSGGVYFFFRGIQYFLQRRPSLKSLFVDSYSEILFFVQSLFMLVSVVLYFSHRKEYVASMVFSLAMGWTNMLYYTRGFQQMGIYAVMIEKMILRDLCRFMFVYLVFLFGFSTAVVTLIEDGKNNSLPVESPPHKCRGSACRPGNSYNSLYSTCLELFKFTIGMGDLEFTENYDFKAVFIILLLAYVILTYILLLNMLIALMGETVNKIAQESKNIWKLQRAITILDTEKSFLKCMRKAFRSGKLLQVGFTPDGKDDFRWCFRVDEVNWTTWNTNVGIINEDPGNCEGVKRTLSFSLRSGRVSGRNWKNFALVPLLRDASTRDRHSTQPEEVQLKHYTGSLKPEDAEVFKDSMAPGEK
Assay: patch-clamp of transfected HEK293 cells, concentration-response, Hill fit
Reported property: EC50
Give the number first and the unit second.

Give measured EC50 for COc1cc(CNC(=O)CCCC/C=C/C(C)C)ccc1O [capsaicin] (mTRPV1 (mouse TRPV1) (Mus musculus, UniProt Q704Y3)).
150 nM
